The values you see were collected from patent US12723023B2.

experiment: In vivo biodegradability assay (lipid concentration in mouse liver by LC-MS); set-up: species or system mice; conditions: Table 1, 0.1 mpk, BLOQ: below level of quantification
OBSERVABLE: In vivo degradability (ng tissue) at 48 h 0.1 mpk

>>> endpoint_result("CCCCCCCC(=O)OCC(COC(=O)CCCCCCC)OC(=O)CCCC(CCCC(=O)OC(COC(=O)CCCCCCC)COC(=O)CCCCCCC)SC(=O)CCCN(C)C")
"BLOQ"
>>> endpoint_result("CC1CCC(CC(=O)OCC(COC(=O)CC2CCC(C)CC2)OC(=O)CCCN(CCCC(=O)OC(COC(=O)CC2CCC(C)CC2)COC(=O)CC2CCC(C)CC2)C(=O)SCCCN(C)C)CC1 (stereo not drawn)")
"<340 ng tissue"
>>> endpoint_result("CN(C)CCCSC(=O)N(CCCC(=O)OC(COC(=O)CCC1CCCCC1)COC(=O)CCC1CCCCC1)CCCC(=O)OC(COC(=O)CCC1CCCCC1)COC(=O)CCC1CCCCC1")
"BLOQ"

====

test: Mouse plasma stability; format: in vitro ADME, CD-1 mouse; conditions: Table 2, 37° C., 1 μM lipid
OBSERVABLE: Plasma half life % remaining after 2 h (%)

>>> endpoint_result("CN(C)CCCSC(=O)N(CCCC(=O)OC(COC(=O)CCC1CCCCC1)COC(=O)CCC1CCCCC1)CCCC(=O)OC(COC(=O)CCC1CCCCC1)COC(=O)CCC1CCCCC1")
36
>>> endpoint_result("CCCCCCCCC(=O)OCC(COC(=O)CCCCCCCC)OC(=O)CCN(CCC(=O)OC(COC(=O)CCCCCCCC)COC(=O)CCCCCCCC)C(=O)SCCCN(C)C")
74
>>> endpoint_result("CN(C)CCCSC(=O)N(CCCC(=O)OC(COC(=O)C1CCC2CCCC2C1)COC(=O)C1CCC2CCCC2C1)CCCC(=O)OC(COC(=O)C1CCC2CCCC2C1)COC(=O)C1CCC2CCCC2C1 (centres unmarked)")
100
>>> endpoint_result("CC(CC1CCCCC1)C(=O)OCC(COC(=O)C(C)CC1CCCCC1)OC(=O)CCCN(CCCC(=O)OC(COC(=O)C(C)CC1CCCCC1)COC(=O)C(C)CC1CCCCC1)C(=O)SCCCN(C)C (centres unmarked)")
100
>>> endpoint_result("CCCCCCCCC(=O)OCC(COC(=O)CCCCCCCC)OC(=O)CN(CC(=O)OC(COC(=O)CCCCCCCC)COC(=O)CCCCCCCC)C(=O)SCCCN(C)C")
81

====

experiment: In vivo biodegradability assay (lipid concentration in mouse liver by LC-MS); design: species or system mice; details: Table 2, 0.03 mpk, BLOQ: below level of quantification
OBSERVABLE: In vivo degradability (ng/tissue) at 48 h 0.03 mpk

>>> endpoint_result("CC1CCC(CC(=O)OCC(COC(=O)CC2CCC(C)CC2)OC(=O)CCCN(CCCC(=O)OC(COC(=O)CC2CCC(C)CC2)COC(=O)CC2CCC(C)CC2)C(=O)SCCCN(C)C)CC1 (centres unmarked)")
"<340 ng/tissue"
>>> endpoint_result("CN(C)CCCSC(=O)N(CCCC(=O)OC(COC(=O)CCC1CCCCC1)COC(=O)CCC1CCCCC1)CCCC(=O)OC(COC(=O)CCC1CCCCC1)COC(=O)CCC1CCCCC1")
"BLOQ"
>>> endpoint_result("CCC1CCC(C(=O)OCC(COC(=O)C2CCC(CC)CC2)OC(=O)CCCN(CCCC(=O)OC(COC(=O)C2CCC(CC)CC2)COC(=O)C2CCC(CC)CC2)C(=O)SCCCN(C)C)CC1 (centres unmarked)")
"<340 ng/tissue"
>>> endpoint_result("CCCCCCCCC(=O)OCC(COC(=O)CCCCCCCC)OC(=O)CCCN(CCCC(=O)OC(COC(=O)CCCCCCCC)COC(=O)CCCCCCCC)C(=O)SCCCN(C)C")
"BLOQ"
>>> endpoint_result("CCCCCCCC(=O)OCC(COC(=O)CCCCCCC)OC(=O)CCCC(CCCC(=O)OC(COC(=O)CCCCCCC)COC(=O)CCCCCCC)SC(=O)CCCN(C)C")
"BLOQ"
>>> endpoint_result("CC1CCC(CCC(=O)OCC(C)(COC(=O)CCC2CCC(C)CC2)COC(=O)CCN(CCC(=O)OCC(C)(COC(=O)CCC2CCC(C)CC2)COC(=O)CCC2CCC(C)CC2)C(=O)SCCCN(C)C)CC1 (centres unmarked)")
"<340 ng/tissue"
>>> endpoint_result("CCCCCCCCC(=O)OCC(COC(=O)CCCCCCCC)COC(=O)CCCN(CCCC(=O)OCC(COC(=O)CCCCCCCC)COC(=O)CCCCCCCC)C(=O)SCCCN(C)C")
"BLOQ"
>>> endpoint_result("CN(C)CCCSC(=O)N(CCCC(=O)OC(COC(=O)CCCC1CCCCC1)COC(=O)CCCC1CCCCC1)CCCC(=O)OC(COC(=O)CCCC1CCCCC1)COC(=O)CCCC1CCCCC1")
"BLOQ"
>>> endpoint_result("CCCCCCCCC(=O)OCC(COC(=O)CCCCCCCC)COC(=O)CCN(CCC(=O)OCC(COC(=O)CCCCCCCC)COC(=O)CCCCCCCC)C(=O)SCCCN(C)C")
"<340 ng/tissue"
>>> endpoint_result("CCCCCCCCC(=O)OCC(COC(=O)CCCCCCCC)OC(=O)CN(CC(=O)OC(COC(=O)CCCCCCCC)COC(=O)CCCCCCCC)C(=O)SCCCN(C)C")
"BLOQ"
>>> endpoint_result("CCCCCCCC(=O)OCC(C)(COC(=O)CCCCCCC)COC(=O)CCN(CCC(=O)OCC(C)(COC(=O)CCCCCCC)COC(=O)CCCCCCC)C(=O)SCCCN(C)C")
"BLOQ"
>>> endpoint_result("CCCCC(C)(C)CC(=O)OCC(C)(COC(=O)CCN(CCC(=O)OCC(C)(COC(=O)CC(C)(C)CCCC)COC(=O)CC(C)(C)CCCC)C(=O)SCCCN(C)C)COC(=O)CC(C)(C)CCCC")
"<340 ng/tissue"
>>> endpoint_result("CCCCCCCCC(=O)OCC(COC(=O)CCCCCCCC)COC(=O)CCN(CCC(=O)OCC(COC(=O)CCCCCCCC)COC(=O)CCCCCCCC)C(=O)SCCN(C)C")
"BLOQ"
>>> endpoint_result("CC(CC1CCCCC1)C(=O)OCC(COC(=O)C(C)CC1CCCCC1)OC(=O)CCCN(CCCC(=O)OC(COC(=O)C(C)CC1CCCCC1)COC(=O)C(C)CC1CCCCC1)C(=O)SCCCN(C)C (centres unmarked)")
"BLOQ"
>>> endpoint_result("CCC1CCC(C(=O)OCC(C)(COC(=O)CCN(CCC(=O)OCC(C)(COC(=O)C2CCC(CC)CC2)COC(=O)C2CCC(CC)CC2)C(=O)SCCCN(C)C)COC(=O)C2CCC(CC)CC2)CC1 (centres unmarked)")
"<340 ng/tissue"
>>> endpoint_result("CCCCCC(C)(C)C(=O)OCC(COC(=O)C(C)(C)CCCCC)OC(=O)CCCN(CCCC(=O)OC(COC(=O)C(C)(C)CCCCC)COC(=O)C(C)(C)CCCCC)C(=O)SCCCN(C)C")
"<340 ng/tissue"
>>> endpoint_result("CC1CCC(CCC(=O)OCC(COC(=O)CCC2CCC(C)CC2)COC(=O)CCN(CCC(=O)OCC(COC(=O)CCC2CCC(C)CC2)COC(=O)CCC2CCC(C)CC2)C(=O)SCCCN(C)C)CC1 (centres unmarked)")
"BLOQ"
>>> endpoint_result("CC1CCC(CC(=O)OCC(C)(COC(=O)CCN(CCC(=O)OCC(C)(COC(=O)CC2CCC(C)CC2)COC(=O)CC2CCC(C)CC2)C(=O)SCCCN(C)C)COC(=O)CC2CCC(C)CC2)CC1 (centres unmarked)")
"<340 ng/tissue"
>>> endpoint_result("CN(C)CCCSC(=O)N(CCCC(=O)OC(COC(=O)C1CCC2CCCC2C1)COC(=O)C1CCC2CCCC2C1)CCCC(=O)OC(COC(=O)C1CCC2CCCC2C1)COC(=O)C1CCC2CCCC2C1 (centres unmarked)")
"BLOQ"
>>> endpoint_result("CCCCCCCCC(=O)OCC(COC(=O)CCCCCCCC)OC(=O)CCC(CCC(=O)OC(COC(=O)CCCCCCCC)COC(=O)CCCCCCCC)OC(=O)CCCN(C)C")
"BLOQ"
